Reported Alloste ic enhan er (AE) values for the following compounds.
target: Adenosine receptor A1 (Homo sapiens); assay: Allosteric enhancer (AE) activity against human adenosine A1 receptor at 50 uM
ATTRIBUTE_MEASURED: Alloste ic enhan er (AE) (%)

{"COMPOUND_SMILES": "COc1ccc(-c2ccc3c(c2)Cc2sc(N)nc2-3)cc1OC", "ATTRIBUTE_MEASURED": "Alloste ic enhan er (AE)", "MEASURE_UNIT": "%", "VALUE_OBSERVED": 83.9}
{"COMPOUND_SMILES": "Nc1nc2c(s1)Cc1cc(-c3ccc4c(c3)OCO4)ccc1-2", "ATTRIBUTE_MEASURED": "Alloste ic enhan er (AE)", "MEASURE_UNIT": "%", "VALUE_OBSERVED": 90.7}
{"COMPOUND_SMILES": "CN(C)c1ccc(-c2ccc3c(c2)Cc2sc(N)nc2-3)cc1", "ATTRIBUTE_MEASURED": "Alloste ic enhan er (AE)", "MEASURE_UNIT": "%", "VALUE_OBSERVED": 67.9}
{"COMPOUND_SMILES": "COc1ccc(-c2ccc3c(c2)Cc2sc(N)nc2-3)cc1", "ATTRIBUTE_MEASURED": "Alloste ic enhan er (AE)", "MEASURE_UNIT": "%", "VALUE_OBSERVED": 72}

###

target: Adenosine receptor A3 (Homo sapiens); test: In vitro allosteric enhancer (AE) activity for adenosine A3 receptor at 50 uM
Where Alloste ic enhan er (AE) equals or exceeds 1%, the correct label is True; where it does not, the label is False.

{"COMPOUND_SMILES": "COc1ccc2cc(-c3ccc4c(c3)Cc3sc(N)nc3-4)ccc2c1", "TARGET_OR_TEST_SYSTEM": "Adenosine receptor A3 (Homo sapiens)", "CLASS": "False"}
{"COMPOUND_SMILES": "COc1ccc(-c2ccc3c(c2)Cc2sc(N)nc2-3)c(OC)c1OC", "TARGET_OR_TEST_SYSTEM": "Adenosine receptor A3 (Homo sapiens)", "CLASS": "False"}
{"COMPOUND_SMILES": "Cc1cc(C)cc(-c2ccc3c(c2)Cc2sc(N)nc2-3)c1", "TARGET_OR_TEST_SYSTEM": "Adenosine receptor A3 (Homo sapiens)", "CLASS": "False"}
{"COMPOUND_SMILES": "Cc1ccc(-c2ccc3c(c2)Cc2sc(N)nc2-3)cc1C", "TARGET_OR_TEST_SYSTEM": "Adenosine receptor A3 (Homo sapiens)", "CLASS": "False"}
{"COMPOUND_SMILES": "Nc1nc2c(s1)Cc1cc(-c3ccc(C(F)(F)F)cc3)ccc1-2", "TARGET_OR_TEST_SYSTEM": "Adenosine receptor A3 (Homo sapiens)", "CLASS": "False"}
{"COMPOUND_SMILES": "Nc1nc2c(s1)Cc1cc(-c3cccc(F)c3)ccc1-2", "TARGET_OR_TEST_SYSTEM": "Adenosine receptor A3 (Homo sapiens)", "CLASS": "True"}
{"COMPOUND_SMILES": "Cc1ccccc1-c1ccc2c(c1)Cc1sc(N)nc1-2", "TARGET_OR_TEST_SYSTEM": "Adenosine receptor A3 (Homo sapiens)", "CLASS": "False"}
{"COMPOUND_SMILES": "Nc1nc2c(s1)Cc1cc(-c3ccc(Cl)c(Cl)c3)ccc1-2", "TARGET_OR_TEST_SYSTEM": "Adenosine receptor A3 (Homo sapiens)", "CLASS": "False"}
{"COMPOUND_SMILES": "COc1ccc(-c2ccc3c(c2)Cc2sc(N)nc2-3)cc1OC", "TARGET_OR_TEST_SYSTEM": "Adenosine receptor A3 (Homo sapiens)", "CLASS": "True"}
{"COMPOUND_SMILES": "COc1cccc(-c2ccc3c(c2)Cc2sc(N)nc2-3)c1", "TARGET_OR_TEST_SYSTEM": "Adenosine receptor A3 (Homo sapiens)", "CLASS": "True"}
